This collection of values is drawn from ChEMBL document CHEMBL1135856.

- target entity: Integrin alpha-4/beta-1 (Homo sapiens, UniProt P05556+P13612)
- Sequence (P05556 whole entry): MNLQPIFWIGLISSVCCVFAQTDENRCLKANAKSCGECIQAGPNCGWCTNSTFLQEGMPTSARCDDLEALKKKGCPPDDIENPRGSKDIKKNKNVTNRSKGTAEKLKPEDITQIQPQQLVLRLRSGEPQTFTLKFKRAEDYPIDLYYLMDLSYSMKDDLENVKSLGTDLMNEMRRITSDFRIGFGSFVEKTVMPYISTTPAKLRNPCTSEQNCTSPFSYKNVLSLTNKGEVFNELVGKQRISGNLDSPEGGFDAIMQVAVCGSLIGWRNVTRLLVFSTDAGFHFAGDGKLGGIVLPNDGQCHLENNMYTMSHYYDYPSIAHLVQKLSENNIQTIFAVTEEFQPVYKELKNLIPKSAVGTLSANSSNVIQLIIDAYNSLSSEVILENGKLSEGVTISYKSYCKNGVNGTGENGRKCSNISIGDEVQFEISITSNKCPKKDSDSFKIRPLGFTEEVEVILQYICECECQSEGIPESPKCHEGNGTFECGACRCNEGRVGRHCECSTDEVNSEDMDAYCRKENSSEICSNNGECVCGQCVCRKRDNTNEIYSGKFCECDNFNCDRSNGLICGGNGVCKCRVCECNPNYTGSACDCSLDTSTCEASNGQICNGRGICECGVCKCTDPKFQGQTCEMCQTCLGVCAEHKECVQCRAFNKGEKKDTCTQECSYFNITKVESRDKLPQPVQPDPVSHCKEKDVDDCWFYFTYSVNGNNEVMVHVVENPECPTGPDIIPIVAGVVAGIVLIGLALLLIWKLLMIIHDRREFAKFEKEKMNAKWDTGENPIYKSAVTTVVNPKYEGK
- Sequence (P13612 whole entry): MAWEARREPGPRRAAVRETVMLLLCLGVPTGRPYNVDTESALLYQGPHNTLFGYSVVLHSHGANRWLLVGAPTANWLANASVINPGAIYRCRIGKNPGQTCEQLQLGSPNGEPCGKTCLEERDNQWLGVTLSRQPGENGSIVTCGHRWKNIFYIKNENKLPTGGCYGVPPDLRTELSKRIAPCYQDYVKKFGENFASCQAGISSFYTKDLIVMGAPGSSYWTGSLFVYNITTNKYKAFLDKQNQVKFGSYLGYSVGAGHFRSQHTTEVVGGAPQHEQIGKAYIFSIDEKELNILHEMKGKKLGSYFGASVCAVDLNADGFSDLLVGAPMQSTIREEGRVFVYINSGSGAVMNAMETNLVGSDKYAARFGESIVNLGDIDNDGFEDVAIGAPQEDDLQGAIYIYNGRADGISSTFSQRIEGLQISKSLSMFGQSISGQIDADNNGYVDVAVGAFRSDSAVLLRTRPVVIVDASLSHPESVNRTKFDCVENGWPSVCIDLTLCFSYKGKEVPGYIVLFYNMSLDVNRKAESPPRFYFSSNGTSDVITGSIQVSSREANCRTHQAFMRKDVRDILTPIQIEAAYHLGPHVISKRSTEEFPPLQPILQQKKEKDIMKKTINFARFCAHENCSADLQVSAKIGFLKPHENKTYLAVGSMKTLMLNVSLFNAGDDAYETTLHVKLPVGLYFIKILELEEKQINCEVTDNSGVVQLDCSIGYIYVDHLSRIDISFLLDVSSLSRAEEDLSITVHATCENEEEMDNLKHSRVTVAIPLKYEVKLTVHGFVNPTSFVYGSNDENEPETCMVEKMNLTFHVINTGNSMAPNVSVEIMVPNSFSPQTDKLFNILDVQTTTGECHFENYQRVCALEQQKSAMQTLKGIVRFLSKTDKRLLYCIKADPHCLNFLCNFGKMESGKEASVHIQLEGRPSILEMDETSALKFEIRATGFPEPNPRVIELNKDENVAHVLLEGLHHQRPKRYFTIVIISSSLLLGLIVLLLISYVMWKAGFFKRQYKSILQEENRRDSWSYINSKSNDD
- method description: Inhibition of [125I]VCAM-Ig binding to Alpha-4 beta-1 (VLA-4) of Jurkat cells
assay endpoint: pIC50
When answering, recall that pIC50 equals minus log10 of the concentration in mol/L, and write that number alone.

query: I am curious: what pIC50 value has been reported for O=C(N[C@@H](Cc1ccc(-c2ccccc2)cc1)C(=O)O)c1ccc(CNS(=O)(=O)c2cc(Cl)cc(Cl)c2)cc1 ?
result: 8.44

query: I am curious: what pIC50 value has been reported for CCCC[C@H](NC(=O)[C@@H]1Cc2ccccc2CN1S(=O)(=O)c1ccc(OC)c(OC)c1)C(=O)O ?
result: 9.28

query: I am curious: what pIC50 value has been reported for Cc1ccccc1NC(=O)Nc1ccc(CC(=O)N(CC(=O)NC(CC(=O)O)c2ccccc2)C2CCCCC2)cc1 (centres undefined) ?
result: 8.49

query: I am curious: what pIC50 value has been reported for Cc1ccccc1NC(=O)Nc1ccc(CC(=O)C2CCC(C(=O)N[C@@H](Cc3ccccc3)C(=O)O)(c3ccccc3)CC2)cc1 (some centres undefined) ?
result: 8.09
